Target: 5-HT1A receptor (Homo sapiens)
Construct: purchased Perkin Elmer 6110501400UA
Sequence (P08908 whole entry): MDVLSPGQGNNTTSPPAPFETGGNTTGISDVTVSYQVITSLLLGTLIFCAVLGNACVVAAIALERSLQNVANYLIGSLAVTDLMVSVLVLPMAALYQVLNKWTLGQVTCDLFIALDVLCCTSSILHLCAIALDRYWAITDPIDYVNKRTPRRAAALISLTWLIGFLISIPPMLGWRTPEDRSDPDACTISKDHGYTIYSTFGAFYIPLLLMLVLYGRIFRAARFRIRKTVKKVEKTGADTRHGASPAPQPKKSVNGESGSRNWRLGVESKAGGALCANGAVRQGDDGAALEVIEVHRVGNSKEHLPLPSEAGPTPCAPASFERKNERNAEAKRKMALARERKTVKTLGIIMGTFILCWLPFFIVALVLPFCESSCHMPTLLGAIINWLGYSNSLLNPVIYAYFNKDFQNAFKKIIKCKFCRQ
Assay: Eurofins Cerep competition binding assay at 5-HT1A receptor
Details: 10 μM test ligand, [3H]8-OH-DPAT, recombinant receptor from HEK-293 cells; read-out: HT1A, percent of control-specific binding
Label scheme, based on inhibition at 10 µM: interval 1 (below 40%), interval 2 (40% to below 70%), interval 3 (70% or more)

Known results for compounds:
{"columns": ["Compound", "Qualitative Label"],
 "data": [
  ["CC(C(F)c1ccc2c(c1)OCO2)N(C)Cc1ccccc1 (single isomer, unassigned) [D(III) as diast. (vii)]", "interval 1"],
  ["CC(C(=O)c1ccc2c(c1)OCO2)N1CCCC1 (racemic) [A(I)]", "interval 3"],
  ["O=c1n(CCCN2CCN(c3cccc(Cl)c3)CC2)nc2ccccn12 [Trazodone, trazodone]", "interval 3"]
]}

# next compound below
## Input Could you tell me which band N[C@@H](Cc1c[nH]c2ccccc12)C(=O)O [tryptophan] belongs to?
## Output interval 1

----------
Target: 5-HT2A receptor (Homo sapiens, UniProt P28223)
Sequence (P28223 whole entry): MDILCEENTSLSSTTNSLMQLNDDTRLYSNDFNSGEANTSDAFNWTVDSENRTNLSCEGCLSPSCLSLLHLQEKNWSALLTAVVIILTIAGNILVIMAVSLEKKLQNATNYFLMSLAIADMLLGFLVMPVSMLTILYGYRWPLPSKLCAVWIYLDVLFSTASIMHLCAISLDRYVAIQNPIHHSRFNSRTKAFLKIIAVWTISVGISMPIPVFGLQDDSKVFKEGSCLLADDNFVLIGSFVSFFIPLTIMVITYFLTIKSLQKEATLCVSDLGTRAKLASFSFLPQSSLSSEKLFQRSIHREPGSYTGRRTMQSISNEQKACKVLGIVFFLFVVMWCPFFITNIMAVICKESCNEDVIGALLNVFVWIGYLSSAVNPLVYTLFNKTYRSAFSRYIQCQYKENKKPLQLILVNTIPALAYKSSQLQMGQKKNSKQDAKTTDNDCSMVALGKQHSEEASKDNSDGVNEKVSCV
Measured Metric: Ki (µM)
State just the number; it will be interpreted in µM.

## Input What reported Ki corresponds to CC(C(=O)c1ccc2c(c1)OCO2)N(C)Cc1ccccc1 (racemic) [A(III)] on 5-HT2A receptor (Homo sapiens, UniProt P28223)?
## Output 53

## Input What reported Ki corresponds to CCCOc1c(OC)cc(CCN)cc1OC [proscaline] on 5-HT2A receptor (Homo sapiens, UniProt P28223)?
## Output 82

## Input What reported Ki corresponds to CC(C(O)c1ccc2c(c1)OCO2)N(C)Cc1ccccc1 (single isomer, unassigned) [B(III) as diast. (iii)] on 5-HT2A receptor (Homo sapiens, UniProt P28223)?
## Output 44

## Input What reported Ki corresponds to CC(C(=O)c1ccc2c(c1)OCO2)N1CCCC1 (racemic) [A(I)] on 5-HT2A receptor (Homo sapiens, UniProt P28223)?
## Output 131

----------
Here, each record is paired with measured HT7, percent of control-specific binding data.
Target: 5-HT7 receptor (Homo sapiens, UniProt P34969)
Construct: host or cells: HEK-293 cells (membrane preparation)
Sequence (P34969 whole entry): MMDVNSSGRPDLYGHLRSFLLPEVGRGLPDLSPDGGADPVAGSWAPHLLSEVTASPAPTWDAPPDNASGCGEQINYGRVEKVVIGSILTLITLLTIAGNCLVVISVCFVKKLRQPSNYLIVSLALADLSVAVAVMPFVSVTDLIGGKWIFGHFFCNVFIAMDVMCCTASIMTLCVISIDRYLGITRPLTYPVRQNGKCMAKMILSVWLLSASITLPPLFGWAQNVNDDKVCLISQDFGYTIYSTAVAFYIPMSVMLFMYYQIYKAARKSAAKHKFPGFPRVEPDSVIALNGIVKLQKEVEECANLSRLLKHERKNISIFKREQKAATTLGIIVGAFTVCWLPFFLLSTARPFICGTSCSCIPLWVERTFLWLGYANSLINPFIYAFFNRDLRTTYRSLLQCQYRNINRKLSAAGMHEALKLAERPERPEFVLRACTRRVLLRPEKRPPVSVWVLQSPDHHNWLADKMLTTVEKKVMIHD
Experiment: Eurofins Cerep competition binding assay at 5-HT7 receptor
Conditions: 10 μM test ligand, [3H]LSD, recombinant receptor from HEK-293 cells
State just the number; it will be interpreted in %.

Recorded results for 2 compounds are shown here.
{"columns": ["Compound", "System Under Test", "HT7, percent of control-specific binding, %"],
 "data": [
  ["COc1cc(CC(C)N)c(OC)cc1Br (stereo not shown)", "5-HT7 receptor (Homo sapiens, UniProt P34969)", 65],
  ["COc1cc(CCN)c(OC)cc1Br", "5-HT7 receptor (Homo sapiens, UniProt P34969)", 88]
]}

## Input What value of HT7, percent of control-specific binding has been recorded for this entry: CNC(C)Cc1ccc2c(c1)OCO2 (stereo not shown)
## Output 58

## Input What value of HT7, percent of control-specific binding has been recorded for this entry: CCOc1c(OC)cc(CCN)cc1OC
## Output 16

----------
Here, each record is paired with measured SERT, percent of control-specific binding data.
Target: serotonin transporter (SERT) (Homo sapiens)
Construct: host or cells: CHO cells (membrane preparation)
Sequence (P31645 whole entry): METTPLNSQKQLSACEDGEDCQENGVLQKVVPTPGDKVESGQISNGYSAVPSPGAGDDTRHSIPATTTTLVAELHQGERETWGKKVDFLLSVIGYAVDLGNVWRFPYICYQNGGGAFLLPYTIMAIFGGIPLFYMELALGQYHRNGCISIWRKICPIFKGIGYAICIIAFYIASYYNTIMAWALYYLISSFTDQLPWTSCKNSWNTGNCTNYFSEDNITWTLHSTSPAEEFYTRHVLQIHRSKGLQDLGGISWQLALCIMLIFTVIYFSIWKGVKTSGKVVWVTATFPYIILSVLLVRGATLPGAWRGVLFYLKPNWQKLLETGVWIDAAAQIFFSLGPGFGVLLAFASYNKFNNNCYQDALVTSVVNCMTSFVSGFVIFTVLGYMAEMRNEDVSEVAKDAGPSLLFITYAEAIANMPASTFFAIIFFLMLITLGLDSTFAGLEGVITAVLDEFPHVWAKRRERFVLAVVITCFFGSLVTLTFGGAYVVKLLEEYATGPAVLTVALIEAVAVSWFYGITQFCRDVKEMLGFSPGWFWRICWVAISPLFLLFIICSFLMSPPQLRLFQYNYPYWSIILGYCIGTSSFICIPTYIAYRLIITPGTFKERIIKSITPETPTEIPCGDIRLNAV
Test: biochemical
Assay type: binding
Details: 10 µM
State just the number; it will be interpreted in %.

{"columns": ["Compound", "Result Units", "Assay Value"],
 "data": [
  ["COc1cc(CCN)c(OC)cc1Br [2C-B]", "%", 42],
  ["COc1cc(CC(C)N)c(OC)cc1Br (centres unmarked) [DOB]", "%", 53],
  ["CCOc1c(OC)cc(CCN)cc1OC [escaline]", "%", 0],
  ["CC(C(O)c1ccc2c(c1)OCO2)N(C)Cc1ccccc1 (single isomer, unassigned) [B(III) as diast. (iv)]", "%", 44]
]}

We next turn to a different compound, shown below.
## Input What reported SERT, percent of control-specific binding corresponds to CNC(C)Cc1ccc2c(c1)OCO2 (centres unmarked) [MDMA] on serotonin transporter (SERT) (Homo sapiens)?
## Output 46

----------
Target: alpha2A receptor (Homo sapiens)
Construct: host or cells: CHO cells (membrane preparation)
Sequence (P08913 whole entry): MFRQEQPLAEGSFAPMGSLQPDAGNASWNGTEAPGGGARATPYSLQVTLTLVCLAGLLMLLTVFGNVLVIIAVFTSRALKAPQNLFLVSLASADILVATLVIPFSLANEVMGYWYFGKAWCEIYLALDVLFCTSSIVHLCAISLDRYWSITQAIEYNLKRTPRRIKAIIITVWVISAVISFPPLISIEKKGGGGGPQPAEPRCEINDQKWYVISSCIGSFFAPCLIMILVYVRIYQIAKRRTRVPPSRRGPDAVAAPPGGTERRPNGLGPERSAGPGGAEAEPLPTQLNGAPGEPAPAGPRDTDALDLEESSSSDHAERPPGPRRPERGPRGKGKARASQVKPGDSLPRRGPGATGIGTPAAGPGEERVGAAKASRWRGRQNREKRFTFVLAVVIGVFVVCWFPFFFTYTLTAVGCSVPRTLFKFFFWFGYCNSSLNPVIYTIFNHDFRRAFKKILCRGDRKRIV
Assay: Eurofins Cerep competition binding assay at alpha2A receptor
Conditions: 10 μM test ligand, [3H]RX 821002, recombinant receptor from CHO cells; read-out: α-2A, percent of control-specific binding
Measured Metric: inhibition at 10 µM (%)
State just the number; it will be interpreted in %.

Recorded results for 4 compounds are shown here.
{"columns": ["Compound", "System Under Test", "inhibition at 10 µM [%]"],
 "data": [
  ["CC(NC(C)(C)C)C(=O)c1cccc(Cl)c1 (stereo not drawn)", "alpha2A receptor (Homo sapiens)", 2],
  ["N[C@@H](Cc1c[nH]c2ccccc12)C(=O)O", "alpha2A receptor (Homo sapiens)", -4],
  ["O=c1n(CCCN2CCN(c3cccc(Cl)c3)CC2)nc2ccccn12", "alpha2A receptor (Homo sapiens)", 91],
  ["CNCC[C@H](Oc1cccc2ccccc12)c1cccs1", "alpha2A receptor (Homo sapiens)", 54]
]}

## Input What value of inhibition at 10 µM has been recorded for this entry: CC(C(F)c1ccc2c(c1)OCO2)N(C)Cc1ccccc1 (single isomer, unassigned) [D(III) as diast. (vii)]
## Output 86

## Input What value of inhibition at 10 µM has been recorded for this entry: COc1cc(CCN)cc(OC)c1OC
## Output 57

## Input What value of inhibition at 10 µM has been recorded for this entry: CC(C(=O)c1ccc2c(c1)OCO2)N(C)Cc1ccccc1 (racemic)
## Output 42

## Input What value of inhibition at 10 µM has been recorded for this entry: COc1ccc2cccc(CCNC(C)=O)c2c1
## Output 2

## Input What value of inhibition at 10 µM has been recorded for this entry: NCCc1c[nH]c2ccc(O)cc12
## Output 18

## Input What value of inhibition at 10 µM has been recorded for this entry: COc1ccc2[nH]cc(CCNC(C)=O)c2c1
## Output -7

## Input What value of inhibition at 10 µM has been recorded for this entry: CC(C(=O)c1ccc2c(c1)OCO2)N1CCCC1 (racemic)
## Output 24

## Input What value of inhibition at 10 µM has been recorded for this entry: CCCOc1c(OC)cc(CCN)cc1OC
## Output 40

## Input What value of inhibition at 10 µM has been recorded for this entry: Cc1ccc(Sc2ccccc2N2CCNCC2)c(C)c1
## Output 62

## Input What value of inhibition at 10 µM has been recorded for this entry: N#Cc1ccc2[nH]cc(CCCCN3CCN(c4ccc5oc(C(N)=O)cc5c4)CC3)c2c1
## Output 65

## Input What value of inhibition at 10 µM has been recorded for this entry: CN(C)CCCN1c2ccccc2CCc2ccccc21
## Output 57

----------
Here, each record is paired with measured inhibition at 10 µM data.
Molecular target: 5-HT2C receptor (Homo sapiens, UniProt P28335)
Construct: host or cells: HEK-293 cells (membrane preparation)
Sequence (P28335 33-458): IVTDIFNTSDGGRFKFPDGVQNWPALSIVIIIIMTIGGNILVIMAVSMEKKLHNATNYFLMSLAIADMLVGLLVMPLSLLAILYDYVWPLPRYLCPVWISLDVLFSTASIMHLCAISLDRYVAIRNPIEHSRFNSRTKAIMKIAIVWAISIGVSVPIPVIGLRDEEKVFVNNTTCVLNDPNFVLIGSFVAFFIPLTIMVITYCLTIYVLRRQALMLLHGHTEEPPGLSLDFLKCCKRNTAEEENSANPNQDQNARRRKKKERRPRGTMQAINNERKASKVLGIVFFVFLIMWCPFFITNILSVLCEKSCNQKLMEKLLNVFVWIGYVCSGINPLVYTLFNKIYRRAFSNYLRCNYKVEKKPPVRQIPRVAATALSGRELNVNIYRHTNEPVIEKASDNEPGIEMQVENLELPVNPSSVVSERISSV
Assay: Eurofins Cerep competition binding assay at 5-HT2C receptor
Details: 10 μM test ligand, [125I](±)DOI, recombinant receptor from HEK-293 cells; read-out: HT2C, percent of control-specific binding
State just the number; it will be interpreted in %.

Recorded results for 10 compounds are shown here.
{"columns": ["Compound", "Result Units", "inhibition at 10 µM"],
 "data": [
  ["CNCC[C@H](Oc1cccc2ccccc12)c1cccs1", "%", 92],
  ["COc1cc(CCN)cc(OC)c1OC", "%", 95],
  ["COc1ccc2cccc(CCNC(C)=O)c2c1", "%", 92],
  ["CC(C(=O)c1ccc2c(c1)OCO2)N(C)Cc1ccccc1 (racemic)", "%", 7],
  ["CCCOc1c(OC)cc(CCN)cc1OC", "%", 97],
  ["CC(C(F)c1ccc2c(c1)OCO2)N(C)Cc1ccccc1 (single isomer, unassigned) [D(III) as diast. (vii)]", "%", 36],
  ["Cc1ccc(Sc2ccccc2N2CCNCC2)c(C)c1", "%", 99],
  ["CC(NC(C)(C)C)C(=O)c1cccc(Cl)c1 (centres unmarked)", "%", 1],
  ["N#Cc1ccc2[nH]cc(CCCCN3CCN(c4ccc5oc(C(N)=O)cc5c4)CC3)c2c1", "%", 92],
  ["COc1ccc2[nH]cc(CCNC(C)=O)c2c1", "%", 19]
]}

## Input What value of inhibition at 10 µM has been recorded for this entry: CC(C(=O)c1ccc2c(c1)OCO2)N1CCCC1 (racemic)
## Output 45

## Input What value of inhibition at 10 µM has been recorded for this entry: N[C@@H](Cc1c[nH]c2ccccc12)C(=O)O
## Output 25

## Input What value of inhibition at 10 µM has been recorded for this entry: O=c1n(CCCN2CCN(c3cccc(Cl)c3)CC2)nc2ccccn12
## Output 93

## Input What value of inhibition at 10 µM has been recorded for this entry: CN(C)CCCN1c2ccccc2CCc2ccccc21
## Output 98
